Recorded values, source paper PMC11838921.

# Test system: antiphenamacril mAb
# Protocol Summary: ic-ELISA for sensitivity and specificity of the mAb
# Format: binding, Balb/c mice
# Test Settings: CR = IC50(analyte)/IC50(structural analogue) x 100%
Result Type: Cross-reactivity

# Compound, Reported Value
data = [
    ("CO/C=C(/C(=O)OC)c1ccccc1COc1cccc(C(F)(F)F)n1", "<0.35%"),
    ("CCOC(=O)C(C#N)=C(N)c1ccccc1 [Phenamacril, 2-cyano-3-amino-3-phenylacrylic acetate]", "100%"),
    ("COC(=O)N(OC)c1ccccc1COc1ccn(-c2ccc(Cl)cc2)n1", "<0.35%"),
    ("COc1c(F)c(F)c(C(=O)NCc2ncc(C(F)(F)F)cc2Cl)c(F)c1F [Fluopimomide]", "<0.35%"),
    ("CO/C=C(/C(=O)OC)c1ccccc1Oc1cc(Oc2ccccc2C#N)ncn1", "<0.35%"),
]
